# Growth Rate listing for each entry below
- System: U2OS
- Test method notes: Incucyte cell viability with U2OS; also: unitless GR value; below 1 slowed growth and below 0 cell loss
- Type: toxicity, cell-based
- Experimental parameters: human, 12 h, 10 µM, compound concentration 10 uM, replicate number 1
Number only, please.

INPUT: # Growth Rate lookup, item CCNC1=N[C@@H]2[C@@H](O)[C@H](O)[C@@H](CO)O[C@@H]2S1
OUTPUT: 0.86

INPUT: Repeat for the following compound: Cn1cc(NC(=O)c2ccc3nc4n(c3c2)CCCNC4=O)nc1C(=O)NC1CCCC1
OUTPUT: 0.82

INPUT: Repeat for the following compound: COc1ccccc1[C@@H]1CNCCC12CCN(C(=O)[C@](OC)(c1ccccc1)C(F)(F)F)CC2
OUTPUT: 0.85

INPUT: Repeat for the following compound: Cc1cc(Cn2c(N3CC4(CNC4)C3)nc3cc(Cl)cc(N4CCN(C)CC4)c32)cc(C)c1F
OUTPUT: 0.79

INPUT: Repeat for the following compound: O=c1cccc2n1C[C@@H]1CNC[C@H]2C1 [CYTISINICLINE]
OUTPUT: 0.79

* * *

- Tested on: HEK-293T
- Test method notes: Incucyte cell viability with HEK293T; also: unitless GR value; below 1 slowed growth and below 0 cell loss
- Assay type: toxicity, cell-based
- Experimental parameters: human, 6 h, 10 µM, compound concentration 10 uM, replicate number 2
Readout: Growth Rate
Number only, please.

- Compound: "COc1cc(F)ccc1-c1cc(Nc2cc(CS(C)(=N)=O)ccn2)ncc1F (centres undefined)"
  Test target: "HEK-293T"
  Recorded measurement: -0.19

INPUT: Param readout= Growth Rate; system= HEK-293T; entry= CCc1nc(-c2cccc(C)c2)c(-c2ccnc(NC(=O)c3ccccc3)c2)s1 ; returns value.
OUTPUT: 0.96

INPUT: Repeat for the following compound: CC(C)c1cnc(NC(=O)Cc2ccccc2)s1
OUTPUT: 0.51

INPUT: Repeat for the following compound: N[C@@H]1CCCC[C@H]1Oc1ccc2ncc(-c3cc4ccccc4o3)n2n1
OUTPUT: -0.97

* * *

- Tested on: Fibroblast
- Test method notes: Incucyte cell viability with human fibroblast; also: unitless GR value; below 1 slowed growth and below 0 cell loss
- Assay type: toxicity, cell-based
- Experimental parameters: 12 h, 10 µM, compound concentration 10 uM, replicate number 1
Readout: Growth Rate
Number only, please.

INPUT: # Growth Rate lookup, item CCCc1c(OCCCOc2ccc(OCC(=O)O)cc2)ccc(C(C)=O)c1O
OUTPUT: 0.74

INPUT: Repeat for the following compound: O=C(NCc1ccc(F)cc1)C1CCN(S(=O)(=O)c2cc(Cl)cc(Cl)c2)CC1
OUTPUT: 0.58

INPUT: Repeat for the following compound: O=C(Nc1ccc(C(O)(C(F)(F)F)C(F)(F)F)cc1)c1ccc(C(F)(F)F)cc1
OUTPUT: 0.64

INPUT: Repeat for the following compound: COc1ccc(-c2coc3cc(O)cc(O)c3c2=O)cc1
OUTPUT: -0.08

INPUT: Repeat for the following compound: CNC1(C)C2CCC(C2)C1(C)C.Cl (stereo not given) [MECAMYLAMINE HYDROCHLORIDE]
OUTPUT: -1

* * *

# Growth Rate listing for each entry below
- System: U2OS
- Test method notes: Incucyte cell viability with U2OS; also: unitless GR value; below 1 slowed growth and below 0 cell loss
- Type: toxicity, cell-based
- Experimental parameters: human, 24 h, 10 µM, compound concentration 10 uM, replicate number 1
Number only, please.

- Molecule: "CCOC(=O)C1=C(C)NC(C)=C(C(=O)OC)C1c1cccc([N+](=O)[O-])c1 (stereo not given) [NITRENDIPINE]"
  Test target: "U2OS"
  Readout: "Growth Rate"
  Recorded measurement: 0.91

INPUT: # Growth Rate lookup, item COc1cc(-c2nn([C@H]3CC[C@H](N4CCN(C(C)=O)CC4)CC3)c3ncnc(N)c23)ccc1NC(=O)c1cc2ccccc2n1C
OUTPUT: 0.44

INPUT: Repeat for the following molecule: Cc1cc(-c2nc(-c3ccc(OC(F)(F)F)cc3)no2)nn1Cc1ccnc(N2CCN(C3CC3)CC2)c1
OUTPUT: 0.88

INPUT: Repeat for the following molecule: O=C([O-])c1cc2cc(Cc3cccnc3)ccc2o1.[Na+]
OUTPUT: 0.71

INPUT: Repeat for the following molecule: O=C(Nc1cccc(C(F)(F)F)c1)c1cccc(-n2cc(-c3ccco3)nn2)c1
OUTPUT: 0.9

INPUT: Repeat for the following molecule: Cc1cccc([C@H]2CC[C@@H](N3CCN(c4cccnc4)CC3)CC2)c1.O=C(O)C(F)(F)F.O=C(O)C(F)(F)F
OUTPUT: 0.93
